Target: human TRPV1 (Homo sapiens)
Sequence (Q8NER1 whole entry): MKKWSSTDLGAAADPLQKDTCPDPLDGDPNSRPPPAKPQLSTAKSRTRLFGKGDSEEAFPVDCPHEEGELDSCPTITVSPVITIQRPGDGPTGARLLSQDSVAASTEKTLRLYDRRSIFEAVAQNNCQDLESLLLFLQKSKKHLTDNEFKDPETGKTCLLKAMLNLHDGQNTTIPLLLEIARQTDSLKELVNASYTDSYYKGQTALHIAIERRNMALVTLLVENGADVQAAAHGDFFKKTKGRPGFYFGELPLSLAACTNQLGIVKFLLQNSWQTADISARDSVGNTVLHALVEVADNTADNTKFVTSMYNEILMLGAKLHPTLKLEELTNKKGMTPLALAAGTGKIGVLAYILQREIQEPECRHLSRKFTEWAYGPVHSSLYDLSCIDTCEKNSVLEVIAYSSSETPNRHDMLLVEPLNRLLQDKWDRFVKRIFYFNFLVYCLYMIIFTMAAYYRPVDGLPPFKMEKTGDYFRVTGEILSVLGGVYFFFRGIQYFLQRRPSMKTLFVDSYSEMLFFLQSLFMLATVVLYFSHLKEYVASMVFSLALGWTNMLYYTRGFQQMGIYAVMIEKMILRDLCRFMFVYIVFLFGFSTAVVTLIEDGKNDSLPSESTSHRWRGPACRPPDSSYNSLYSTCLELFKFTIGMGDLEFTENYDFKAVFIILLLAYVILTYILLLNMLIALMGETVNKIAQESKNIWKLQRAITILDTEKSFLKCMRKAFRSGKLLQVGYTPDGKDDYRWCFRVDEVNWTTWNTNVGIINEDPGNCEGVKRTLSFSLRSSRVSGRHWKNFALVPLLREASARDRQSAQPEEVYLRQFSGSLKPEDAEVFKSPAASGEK
Test: Block of capsaicin-induced Ca2+ influx, human assay (hTRPV1/HEK293, FLIPR)
Settings: HEK293 cells transfected with human TRPV1; 150 nM capsaicin challenge; mean; > value = solubility limit in assay medium
Procedure: HEK293 cells were transfected with human TRPV1 cloned in pcDNA3.1zeo(+) using the Effectene non-liposomal lipid based transfection kit (Qiagen) (hTRPV1/HEK293). hTRPV1/HEK293 cells were routinely grown as monolayers under selection in zeocin (200 μg/mL; Invitrogen) in Dulbecco's Modified Eagle Medium (DMEM, Gibco BRL) supplemented with 10% fetal bovine serum, and penicillin/streptomycin (50 units/mL) in 5% CO2 at 37° C. […] The IC50 values were determined. […]
Counter-ions that a name gives are not always drawn.
Class (by IC50) -- low: < 100 nM; medium: ≥ 100 nM and < 800 nM; high: ≥ 800 nM

Sample answers from the record:
compound	label_class
FC(F)(F)c1ccc(Nc2nc(NC3CC3)nc3sc(Cc4c(Cl)cccc4Cl)nc23)cc1 [Example 78]	medium
FC(F)(F)c1ccc(Nc2ncnc3sc(Cc4ccccc4)nc23)cc1 [Example 32]	high
FC(F)(F)c1ccccc1Nc1ncnc2sc(Cc3c(Cl)cccc3Cl)nc12 [Example 23]	high
FC(F)(F)c1ccc(Nc2nc(NCC3CCCCN3)nc3sc(Cc4c(Cl)cccc4Cl)nc23)cc1 (centres unmarked) [Example 90, hydrochloride salt]	high
CC(C)[Si](Sc1ccccc1Cc1nc2c(Nc3ccc(C(F)(F)F)cc3)ncnc2s1)(C(C)C)C(C)C [Example 104]	medium

# evaluate next
Consider Cc1cccc(C)c1Cc1nc2c(Nc3ccc(Br)cc3)ncnc2s1 [Example 56] . To which IC50 class does it belong?
medium

====

Target: rat TRPV1 (Rattus norvegicus, UniProt O35433)
Construct: expressed in transfected cells; host or cells: HEK293
Sequence (O35433 whole entry): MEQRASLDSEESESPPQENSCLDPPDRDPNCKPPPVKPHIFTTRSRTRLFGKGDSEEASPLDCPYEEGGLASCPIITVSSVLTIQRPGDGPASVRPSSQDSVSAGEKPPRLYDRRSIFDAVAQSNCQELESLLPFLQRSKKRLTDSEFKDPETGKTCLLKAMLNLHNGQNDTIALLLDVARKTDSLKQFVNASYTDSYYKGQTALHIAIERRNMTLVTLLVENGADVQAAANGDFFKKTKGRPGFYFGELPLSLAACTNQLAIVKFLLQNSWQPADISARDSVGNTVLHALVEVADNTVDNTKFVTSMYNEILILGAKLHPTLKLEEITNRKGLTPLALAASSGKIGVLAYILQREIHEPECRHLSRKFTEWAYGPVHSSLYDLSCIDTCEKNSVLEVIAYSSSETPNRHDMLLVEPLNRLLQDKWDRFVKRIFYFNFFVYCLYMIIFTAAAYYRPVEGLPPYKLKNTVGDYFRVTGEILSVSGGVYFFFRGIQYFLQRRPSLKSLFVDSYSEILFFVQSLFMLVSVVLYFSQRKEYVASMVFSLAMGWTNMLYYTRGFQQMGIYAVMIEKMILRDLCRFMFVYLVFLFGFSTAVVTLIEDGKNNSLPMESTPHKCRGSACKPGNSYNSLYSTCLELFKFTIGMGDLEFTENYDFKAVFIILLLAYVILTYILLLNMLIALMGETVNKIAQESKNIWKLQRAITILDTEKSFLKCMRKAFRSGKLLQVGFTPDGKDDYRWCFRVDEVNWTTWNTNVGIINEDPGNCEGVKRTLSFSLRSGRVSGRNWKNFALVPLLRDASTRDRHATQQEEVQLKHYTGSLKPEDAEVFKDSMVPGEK
Test: Block of capsaicin-induced Ca2+ influx, rat assay (rTRPV1/HEK293, FLIPR)
Type: cell-based
Conditions: HEK293 cells transfected with rat TRPV1; capsaicin challenge; mean; > value = solubility limit in assay medium; read-out: Rat IC50
Where a name gives a salt, the structure may show the parent alone.
endpoint: pIC50
The meaning of pIC50 here: minus log10 of the concentration in molar units.

Use these answered entries as a reference point.
compound	assay_result
CC(C)(C)c1nnc(Nc2ncnc3sc(Cc4c(Cl)cccc4Cl)nc23)s1	6.71
FC(F)(F)c1ccc(Nc2nc(NCc3ccncc3)nc3sc(Cc4c(Cl)cccc4Cl)nc23)cc1 [Example 86, trifluoroacetic acid salt]	6.73
CSc1ccc(Nc2ncnc3sc(Cc4c(Cl)cccc4Cl)nc23)cn1	7.00
O=S(=O)(c1ccc(Nc2ncnc3sc(Cc4ccccc4C(F)(F)F)nc23)cc1)N1CCOCC1	7.36
FC(F)(F)c1ccc(Nc2nc(NCC3CC3)nc3sc(Cc4c(Cl)cccc4Cl)nc23)cc1	6.99
FC(F)(F)c1ccc(Nc2ncnc3sc(Cc4ccccc4C(F)(F)F)nc23)cn1	7.89

Per the record, `FC(F)(F)c1ccc(Nc2ncnc3sc(Cc4cccc(Cl)c4)nc23)cc1` has pIC50 of 7.06

Per the record, `Clc1cccc(Cl)c1Cc1nc2c(Nc3ccccc3)ncnc2s1` has pIC50 of 6.78

Per the record, `FC(F)(F)c1ccc(Nc2ncnc3sc(Cc4ccc(Cl)cc4)nc23)cn1` has pIC50 of 7.10

Per the record, `CC(C)COc1nc(Nc2ccc(C(F)(F)F)cc2)c2nc(Cc3c(Cl)cccc3Cl)sc2n1` has pIC50 of 7.80
